# measurement-description: 7-day repeat-dose oral toxicokinetics
# Type: in vivo, Bama minipig
# cond: female, Bama, minipig, plasma, po, 0.1 g/kg, 0.1 g/kg BID, Day 7, F; read-out: AUC0-24
recorded-metric: AUC(0-t) (µg·h/mL)

1. OC[C@@H](O)[C@@H](O)[C@@H](O)CO; 317

* * *

# measurement-description: 7-day repeat-dose oral toxicokinetics
# Assay type: in vivo, Bama minipig
# cond: female, Bama, minipig, plasma, po, 1 g/kg, 1.0 g/kg BID, Day 7, F; read-out: AUC0-24
recorded-metric: AUC(0-t) (µg·h/mL)

1. OC[C@@H](O)[C@@H](O)[C@@H](O)CO [ribitol, (2R,3s,4S)-Pentane-1,2,3,4,5-pentol]; 1870

* * *

# measurement-description: Metabolic stability in liver microsomes, cytosol, hepatocytes
# Type: in vitro ADME
# cond: Sprague-Dawley, rat, primary hepatocytes, Hepatocytes
recorded-metric: half-life at 10 μM

1. OC[C@@H](O)[C@@H](O)[C@@H](O)CO; > 6.07 h

* * *

# measurement-description: 7-day repeat-dose oral toxicokinetics
# Format: in vivo, Bama minipig
# cond: male, Bama, minipig, plasma, po, 0.1 g/kg, 0.1 g/kg BID, Day 1, M
recorded-metric: Tmax (h)

1. OC[C@@H](O)[C@@H](O)[C@@H](O)CO; 3.5

* * *

# measurement-description: Single oral dose PK
# Type: in vivo, CD-1 mouse
# cond: CD-1, mouse, plasma; single PO 1.0 g/kg, male; read-out: Tmax
recorded-metric: Tmax

1. OC[C@@H](O)[C@@H](O)[C@@H](O)CO; 30 min

* * *

# measurement-description: 28-day repeat-dose oral toxicokinetics
# Type: in vivo, CD-1 mouse
# cond: male, CD-1, mouse, plasma, po, 0.5 g/kg, 0.5 g/kg/dose BID, Day 1, Male
recorded-metric: Cmax

1) OC[C@@H](O)[C@@H](O)[C@@H](O)CO; 124 µg/mL

* * *

# measurement-description: 28-day repeat-dose oral toxicokinetics
# Format: in vivo, CD-1 mouse
# cond: both sexes, CD-1, mouse, plasma, po, 1.5 g/kg, 1.5 g/kg/dose BID, Day 28, Mean of sexes
recorded-metric: Cmax (µg/mL)

1) OC[C@@H](O)[C@@H](O)[C@@H](O)CO; 336

* * *

# measurement-description: Single oral dose PK
# Assay type: in vivo, CD-1 mouse
# cond: CD-1, mouse, plasma; single PO 1.0 g/kg, male; read-out: T1/2 (converted)
recorded-metric: half-life (h)

1. OC[C@@H](O)[C@@H](O)[C@@H](O)CO; 1.31

* * *

# measurement-description: PK comparison QD, BID, TID oral dosing
# Assay type: in vivo
# cond: male, CD-1, mouse, plasma, po, 0.3 g/kg, PO 0.3 g/kg/dose TID, last dose
recorded-metric: half-life

1) OC[C@@H](O)[C@@H](O)[C@@H](O)CO; 27.2 min

* * *

# measurement-description: 7-day repeat-dose oral toxicokinetics
# Type: in vivo, CD-1 mouse
# cond: male, CD-1, mouse, plasma, po, 1.5 g/kg, 1.5 g/kg/dose BID, Day 1, M; read-out: AUC0-24
recorded-metric: AUC(0-t)

1) OC[C@@H](O)[C@@H](O)[C@@H](O)CO; 595 µg·h/mL

* * *

# measurement-description: 28-day repeat-dose oral toxicokinetics
# Assay type: in vivo, Bama minipig
# cond: female, Bama, minipig, plasma, po, 1 g/kg, 1.0 g/kg/dose BID (2.0 g/kg/day, NOAEL), Day 28, Female; read-out: AUC0-24
recorded-metric: AUC(0-t) (µg·h/mL)

1. OC[C@@H](O)[C@@H](O)[C@@H](O)CO; 1980
